# assayNotes: Solubility in water, methanol and ethanol
# Type: physicochemical
# measurementParameters: water; boiling temperature; read-out: solubility in water
measuredParameter: solubility

### Prompt Report solubility, nothing else, for this compound: CC(O)C(=O)Nc1c(I)c(C(=O)NCCOCCOCCNC(=O)c2c(I)c(NC(=O)C(C)O)c(I)c(C(=O)NC(CO)CO)c2I)c(I)c(C(=O)NC(CO)CO)c1I (stereo not shown)
### Response ~1000 mg/mL

* * *

# assayNotes: Osmotic pressure of aqueous solutions at 37° C.
# Assay type: physicochemical
# measurementParameters: 400 mg I per ml
measuredParameter: Osmotic pressure (atm.)
Give just the numeric value; atm. need not be written.

Solved cases (3 shown):
[[record]]
compound = "CC(=O)Nc1c(I)c(C(=O)N[C@H]2C(O)O[C@H](CO)[C@@H](O)[C@@H]2O)c(I)c(N(C)C(C)=O)c1I (stereo partly drawn)"
measuredparameter = "Osmotic pressure"
resultunit = "atm."
assayvalue = 14.7

[[record]]
compound = "CNC(=O)c1c(I)c(NC(=O)CN(CC(=O)Nc2c(I)c(C(=O)O)c(I)c(C(=O)NC)c2I)CC(=O)Nc2c(I)c(C(=O)O)c(I)c(C(=O)NC)c2I)c(I)c(C(=O)O)c1I"
measuredparameter = "Osmotic pressure"
resultunit = "atm."
assayvalue = 36.2

[[record]]
compound = "CC(O)C(=O)Nc1c(I)c(C(=O)NC(CO)CO)c(I)c(C(=O)N(C)CCCOCCOCCOCCOCCCN(C)C(=O)c2c(I)c(NC(=O)C(C)O)c(I)c(C(=O)NC(CO)CO)c2I)c1I (stereo not drawn)"
measuredparameter = "Osmotic pressure"
resultunit = "atm."
assayvalue = 9.42


### Prompt Give recorded Osmotic pressure. CC(O)C(=O)Nc1c(I)c(C(=O)NCCOCCOCCNC(=O)c2c(I)c(NC(=O)C(C)O)c(I)c(C(=O)NC(CO)CO)c2I)c(I)c(C(=O)NC(CO)CO)c1I (stereo not drawn)
### Response 8.15

### Prompt Quote Osmotic pressure reported for CC(O)C(=O)Nc1c(I)c(C(=O)NC(CO)CO)c(I)c(C(=O)NC(CO)CO)c1I (stereo not drawn) please.
### Response 22.2

### Prompt Given the compound CC(O)C(=O)Nc1c(I)c(C(=O)NC(CO)CO)c(I)c(C(=O)N(C)CCOCCOCCOCCN(C)C(=O)c2c(I)c(NC(=O)C(C)O)c(I)c(C(=O)NC(CO)CO)c2I)c1I (stereo not drawn) , write its reported Osmotic pressure.
### Response 10.59

* * *

Reported Toxicity, LD50, intracerebral values are given for each entry in this list.
# System: mouse
# assayNotes: Toxicity, LD50 48 hours after intracerebral injection in mice
# Format: in vivo
# measurementParameters: 48 hours after injection
Note: unit mg I/kg is implicit; provide only the numeric part.

Sample records with Toxicity, LD50, intracerebral:
[[record]]
compound = "CC(O)C(=O)Nc1c(I)c(C(=O)NC(CO)CO)c(I)c(C(=O)NC(CO)CO)c1I (stereo not shown) [E]"
measuredparameter = "Toxicity, LD50, intracerebral"
assayvalue = 1500

[[record]]
compound = "CC(=O)Nc1c(I)c(C(=O)N[C@H]2C(O)O[C@H](CO)[C@@H](O)[C@@H]2O)c(I)c(N(C)C(C)=O)c1I (stereo partly shown) [F]"
measuredparameter = "Toxicity, LD50, intracerebral"
assayvalue = 1400

[[record]]
compound = "CNC(=O)c1c(I)c(NC(=O)CCCCC(=O)Nc2c(I)c(C(=O)O)c(I)c(C(=O)NC)c2I)c(I)c(C(=O)O)c1I [G]"
measuredparameter = "Toxicity, LD50, intracerebral"
assayvalue = 600

[[record]]
compound = "CC(O)C(=O)Nc1c(I)c(C(=O)NCCOCCOCCNC(=O)c2c(I)c(NC(=O)C(C)O)c(I)c(C(=O)NC(CO)CO)c2I)c(I)c(C(=O)NC(CO)CO)c1I (stereo not shown) [Compound A]"
measuredparameter = "Toxicity, LD50, intracerebral"
assayvalue = 1100

[[record]]
compound = "CC(O)C(=O)Nc1c(I)c(C(=O)NC(CO)CO)c(I)c(C(=O)N(C)CCCOCCOCCOCCOCCCN(C)C(=O)c2c(I)c(NC(=O)C(C)O)c(I)c(C(=O)NC(CO)CO)c2I)c1I (stereo not shown) [Compound D]"
measuredparameter = "Toxicity, LD50, intracerebral"
assayvalue = 1420

[[record]]
compound = "CC(O)C(=O)Nc1c(I)c(C(=O)NC(CO)CO)c(I)c(C(=O)N(C)CCOCCOCCOCCN(C)C(=O)c2c(I)c(NC(=O)C(C)O)c(I)c(C(=O)NC(CO)CO)c2I)c1I (stereo not shown) [Compound C]"
measuredparameter = "Toxicity, LD50, intracerebral"
assayvalue = 1130


### Prompt Please report Toxicity, LD50, intracerebral with mouse for item CC(O)C(=O)Nc1c(I)c(C(=O)NCCCOCCOCCOCCOCCCNC(=O)c2c(I)c(NC(=O)C(C)O)c(I)c(C(=O)NC(CO)CO)c2I)c(I)c(C(=O)NC(CO)CO)c1I (stereo not shown) [Compound B] .
### Response 990

* * *

# Test system: mouse
# assayNotes: Toxicity, LD50 12 days after intravenous injection in mice
# Format: in vivo
# measurementParameters: 12 days after injection
measuredParameter: Toxicity, LD50, intravenous (mg I/kg)
Field: numeric (mg I/kg). Do not append units.

[[record]]
molecule = "CC(O)C(=O)Nc1c(I)c(C(=O)NC(CO)CO)c(I)c(C(=O)N(C)CCOCCOCCOCCN(C)C(=O)c2c(I)c(NC(=O)C(C)O)c(I)c(C(=O)NC(CO)CO)c2I)c1I (stereo not drawn)"
measuredparameter = "Toxicity, LD50, intravenous"
resultunit = "mg I/kg"
assayvalue = 14000

[[record]]
molecule = "CC(=O)Nc1c(I)c(C(=O)N[C@H]2C(O)O[C@H](CO)[C@@H](O)[C@@H]2O)c(I)c(N(C)C(C)=O)c1I (stereo partly drawn)"
measuredparameter = "Toxicity, LD50, intravenous"
resultunit = "mg I/kg"
assayvalue = 10200

[[record]]
molecule = "CNC(=O)c1c(I)c(NC(=O)CN(CC(=O)Nc2c(I)c(C(=O)O)c(I)c(C(=O)NC)c2I)CC(=O)Nc2c(I)c(C(=O)O)c(I)c(C(=O)NC)c2I)c(I)c(C(=O)O)c1I"
measuredparameter = "Toxicity, LD50, intravenous"
resultunit = "mg I/kg"
assayvalue = 5800

[[record]]
molecule = "CNC(=O)c1c(I)c(NC(=O)CCCCC(=O)Nc2c(I)c(C(=O)O)c(I)c(C(=O)NC)c2I)c(I)c(C(=O)O)c1I"
measuredparameter = "Toxicity, LD50, intravenous"
resultunit = "mg I/kg"
assayvalue = 5500

[[record]]
molecule = "CC(O)C(=O)Nc1c(I)c(C(=O)NC(CO)CO)c(I)c(C(=O)NC(CO)CO)c1I (stereo not drawn)"
measuredparameter = "Toxicity, LD50, intravenous"
resultunit = "mg I/kg"
assayvalue = 21800


Next molecule, please.
### Prompt Name the recorded Toxicity, LD50, intravenous of the item "CC(=O)Nc1c(I)c(NC(C)=O)c(I)c(C(=O)O)c1I" in your answer.
### Response 7600

* * *

# assayNotes: Solubility in water, methanol and ethanol
# Assay type: physicochemical
# measurementParameters: methanol, organic solvent or mixture, boiling methanol; read-out: solubility in methanol
measuredParameter: solubility
Report field: quantity (unit follows the number).

### Prompt Consider the molecule CC(O)C(=O)Nc1c(I)c(C(=O)NCCCOCCOCCOCCOCCCNC(=O)c2c(I)c(NC(=O)C(C)O)c(I)c(C(=O)NC(CO)CO)c2I)c(I)c(C(=O)NC(CO)CO)c1I (stereo not shown) . State its measured solubility.
### Response 500 mg/mL

* * *

# assayNotes: Solubility in water, methanol and ethanol
# Assay type: physicochemical
# measurementParameters: water; 20° C.; read-out: solubility in water
measuredParameter: solubility

[[record]]
molecule = "CC(O)C(=O)Nc1c(I)c(C(=O)NCCOCCOCCNC(=O)c2c(I)c(NC(=O)C(C)O)c(I)c(C(=O)NC(CO)CO)c2I)c(I)c(C(=O)NC(CO)CO)c1I (centres unmarked)"
assayvalue = "~500 mg/mL"


### Prompt Answer with the recorded solubility of CC(O)C(=O)Nc1c(I)c(C(=O)NCCCOCCOCCOCCOCCCNC(=O)c2c(I)c(NC(=O)C(C)O)c(I)c(C(=O)NC(CO)CO)c2I)c(I)c(C(=O)NC(CO)CO)c1I (centres unmarked) only.
### Response ~1000 mg/mL

* * *

# assayNotes: Solubility in water, methanol and ethanol
# Type: physicochemical
# measurementParameters: water; per 100 ml; 20° C.; read-out: solubility in water
measuredParameter: solubility

### Prompt Given the compound CC(O)C(=O)Nc1c(I)c(C(=O)NCCOCCNC(=O)c2c(I)c(NC(=O)C(C)O)c(I)c(C(=O)NC(C)(CO)CO)c2I)c(I)c(C(=O)NC(C)(CO)CO)c1I (stereo not shown) [Example 11] , write its reported solubility.
### Response > 1000 mg/mL
